tgt: wild-type Androgen Receptor (AR-wt) (Homo sapiens (Human), UniProt P10275)
Sequence (P10275 whole entry): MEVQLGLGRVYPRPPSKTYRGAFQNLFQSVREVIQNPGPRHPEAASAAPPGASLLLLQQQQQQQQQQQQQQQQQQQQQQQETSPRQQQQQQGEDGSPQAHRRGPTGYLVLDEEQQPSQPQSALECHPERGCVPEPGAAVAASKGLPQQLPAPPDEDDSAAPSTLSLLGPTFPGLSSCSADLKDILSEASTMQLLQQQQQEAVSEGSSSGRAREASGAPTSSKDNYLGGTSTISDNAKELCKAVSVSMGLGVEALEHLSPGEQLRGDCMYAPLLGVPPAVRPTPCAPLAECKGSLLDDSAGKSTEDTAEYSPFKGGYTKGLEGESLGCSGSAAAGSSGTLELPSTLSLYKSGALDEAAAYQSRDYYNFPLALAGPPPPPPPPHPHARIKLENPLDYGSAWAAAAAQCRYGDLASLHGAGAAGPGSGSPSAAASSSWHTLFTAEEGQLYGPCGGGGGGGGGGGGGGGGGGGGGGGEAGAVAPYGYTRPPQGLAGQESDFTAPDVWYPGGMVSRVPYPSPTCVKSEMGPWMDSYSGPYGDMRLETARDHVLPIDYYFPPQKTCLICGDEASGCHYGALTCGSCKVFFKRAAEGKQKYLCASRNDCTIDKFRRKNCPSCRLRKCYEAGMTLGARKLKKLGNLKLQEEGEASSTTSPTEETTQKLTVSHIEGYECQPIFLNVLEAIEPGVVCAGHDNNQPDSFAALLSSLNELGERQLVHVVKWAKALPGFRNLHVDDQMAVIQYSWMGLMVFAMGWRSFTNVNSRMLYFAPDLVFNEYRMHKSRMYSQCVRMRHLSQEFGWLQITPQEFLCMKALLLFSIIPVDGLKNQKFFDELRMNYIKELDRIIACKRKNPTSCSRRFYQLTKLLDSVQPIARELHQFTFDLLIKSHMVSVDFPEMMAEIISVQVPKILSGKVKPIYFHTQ
assay.notes: LNCaP-AR-wt ANT reporter assay (antagonist mode)
Format: cell-based
setup.conditions: maximum % inhibition of R1881 control response over the tested concentration range; read-out: LNCaP-AR-wt ANT MAX % Inh
readout.type: Emax (%)

- compound: "CN1CCC(C(=O)c2ccc(N3C(=S)N(c4cnc(C#N)c(C(F)(F)F)c4)C(=O)C34CCC4)cc2)CC1 [Cpd 144]"
  tgt: "wild-type Androgen Receptor (AR-wt) (Homo sapiens (Human), UniProt P10275)"
  Emax, %: 98.3
- compound: "N#Cc1ncc(N2C(=O)C3(CCC3)N(c3ccc(OC4CCN(CCCF)CC4)cc3)C2=S)cc1C(F)(F)F [Cpd 14]"
  tgt: "wild-type Androgen Receptor (AR-wt) (Homo sapiens (Human), UniProt P10275)"
  Emax, %: 97.1
- compound: "CN1CCC[C@H](CNC(=O)c2ccc(N3C(=S)N(c4cnc(C#N)c(C(F)(F)F)c4)C(=O)C34CCC4)cc2)C1 [Cpd 184]"
  tgt: "wild-type Androgen Receptor (AR-wt) (Homo sapiens (Human), UniProt P10275)"
  Emax, %: 100
- compound: "N#Cc1ncc(N2C(=O)C3(CCC3)N(c3ccc(OCC4CNCCO4)cc3)C2=S)cc1C(F)(F)F (stereo not shown) [Cpd 74]"
  tgt: "wild-type Androgen Receptor (AR-wt) (Homo sapiens (Human), UniProt P10275)"
  Emax, %: 100
- compound: "Cc1cc(N2C(=O)C3(CCC3)N(c3ccc(OC4CCN(C)CC4)nc3)C2=S)cnc1C#N [Cpd 2]"
  tgt: "wild-type Androgen Receptor (AR-wt) (Homo sapiens (Human), UniProt P10275)"
  Emax, %: 101
- compound: "CN1CC[C@@H](Oc2ccc(N3C(=S)N(c4cnc(C#N)c(C(F)(F)F)c4)C(=O)C34CCC4)cc2)C1 [Cpd 16]"
  tgt: "wild-type Androgen Receptor (AR-wt) (Homo sapiens (Human), UniProt P10275)"
  Emax, %: 98.8
- compound: "CN1CCC(Oc2ccc(N3C(=S)N(c4cnc(C#N)c(C(F)(F)F)c4)C(=O)C34CCC4)cc2)C(F)(F)C1 (racemic) [Cpd 137]"
  tgt: "wild-type Androgen Receptor (AR-wt) (Homo sapiens (Human), UniProt P10275)"
  Emax, %: 102

* * *

tgt: F876L mutant Androgen Receptor (AR-F876L) (Homo sapiens (Human), UniProt P10275, F877L)
Sequence (P10275 whole entry F877L): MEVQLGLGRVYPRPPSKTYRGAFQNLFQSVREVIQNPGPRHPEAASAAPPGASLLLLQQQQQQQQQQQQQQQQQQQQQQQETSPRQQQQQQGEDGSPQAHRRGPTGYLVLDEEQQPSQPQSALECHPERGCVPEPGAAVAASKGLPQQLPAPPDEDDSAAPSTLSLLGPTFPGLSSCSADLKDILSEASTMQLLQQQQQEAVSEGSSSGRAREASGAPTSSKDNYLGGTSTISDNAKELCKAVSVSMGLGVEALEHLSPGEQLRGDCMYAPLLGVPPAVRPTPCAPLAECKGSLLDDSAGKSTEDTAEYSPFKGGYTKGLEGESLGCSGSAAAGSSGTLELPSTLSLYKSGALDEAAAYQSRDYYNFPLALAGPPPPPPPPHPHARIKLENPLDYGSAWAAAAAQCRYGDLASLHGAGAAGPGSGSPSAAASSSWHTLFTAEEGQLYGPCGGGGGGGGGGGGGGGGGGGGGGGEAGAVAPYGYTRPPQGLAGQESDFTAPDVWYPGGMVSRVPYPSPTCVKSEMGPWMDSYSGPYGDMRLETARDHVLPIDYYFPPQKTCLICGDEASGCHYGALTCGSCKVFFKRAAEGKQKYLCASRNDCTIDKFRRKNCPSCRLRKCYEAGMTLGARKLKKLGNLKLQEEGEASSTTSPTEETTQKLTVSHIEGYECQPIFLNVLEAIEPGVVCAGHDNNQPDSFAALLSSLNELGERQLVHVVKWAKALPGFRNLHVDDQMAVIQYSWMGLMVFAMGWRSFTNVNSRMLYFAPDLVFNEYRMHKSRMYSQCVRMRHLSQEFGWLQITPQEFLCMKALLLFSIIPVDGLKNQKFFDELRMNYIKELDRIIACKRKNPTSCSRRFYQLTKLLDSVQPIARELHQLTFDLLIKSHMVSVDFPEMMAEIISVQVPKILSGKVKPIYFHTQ
assay.notes: LNCaP-AR-F876L ANT reporter assay (antagonist mode)
Assay type: cell-based
setup.conditions: maximum % inhibition of R1881 control response over the tested concentration range; read-out: LNCaP-AR-F876L ANT MAX % Inh
readout.type: Emax (%)

- compound: "CC(=O)N1CCC(Cn2ncc3cc(N4C(=S)N(c5cnc(C#N)c(C(F)(F)F)c5)C(=O)C45CCC5)ccc32)CC1"
  unit.of.measurement: "%"
  Emax: 103
- compound: "N#Cc1ncc(N2C(=O)C3(CCC3)N(c3ccc(O[C@H]4CCNC[C@@H]4F)cc3)C2=S)cc1C(F)(F)F (racemic)"
  unit.of.measurement: "%"
  Emax: 99.7
- compound: "N#Cc1ncc(N2C(=O)C3(CCC3)N(c3ccc(OC4CCN(CCF)CC4)cc3)C2=S)cc1C(F)(F)F"
  unit.of.measurement: "%"
  Emax: 100
- compound: "CC(C)(C)OC(=O)N1CCc2cc(N3C(=S)N(c4cnc(C#N)c(C(F)(F)F)c4)C(=O)C34CCC4)ccc2C1"
  unit.of.measurement: "%"
  Emax: 93.7
- compound: "N#Cc1ncc(N2C(=O)C3(CCC3)N(c3ccc(OC4CCN(CCO)CC4)nc3)C2=S)cc1C(F)(F)F"
  unit.of.measurement: "%"
  Emax: 101
- compound: "CN(C)C1CCC(Oc2ccc(N3C(=S)N(c4cnc(C#N)c(C(F)(F)F)c4)C(=O)C34CCC4)cc2)CC1 (stereo not drawn)"
  unit.of.measurement: "%"
  Emax: 101
- compound: "CN1CCC(Oc2ccc(N3C(=S)N(c4cnc(C#N)c(Cl)c4)C(=O)C34CCC4)cn2)CC1"
  unit.of.measurement: "%"
  Emax: 100
- compound: "N#Cc1ncc(N2C(=O)C3(CCC3)N(c3ccc(OC4CCN(CC(O)CN)CC4)cc3)C2=S)cc1C(F)(F)F (stereo not drawn)"
  unit.of.measurement: "%"
  Emax: 99.8
- compound: "COc1cc(N2C(=O)C3(CCC3)N(c3ccc4nn(CCO)cc4c3)C2=S)cnc1C#N"
  unit.of.measurement: "%"
  Emax: 101
- compound: "N#Cc1ncc(N2C(=O)C3(CCC3)N(c3ccc(OC4CCS(=O)(=O)CC4)cc3)C2=S)cc1C(F)(F)F"
  unit.of.measurement: "%"
  Emax: 98.1
- compound: "CN1CCC(Oc2ncc(N3C(=S)N(c4cnc(C#N)c(C(F)(F)F)c4)C(=O)C34CCC4)cn2)CC1"
  unit.of.measurement: "%"
  Emax: 99.9
- compound: "CN1CC[C@H](Oc2ccc(N3C(=S)N(c4cnc(C#N)c(C(F)(F)F)c4)C(=O)C34CCC4)cc2)[C@H](F)C1 (racemic)"
  unit.of.measurement: "%"
  Emax: 99.6
- compound: "C[C@@H]1OC(c2ccc(N3C(=S)N(c4cnc(C#N)c(C(F)(F)F)c4)C(=O)C34CCC4)cc2)=C[C@H](O)[C@H]1O"
  unit.of.measurement: "%"
  Emax: 102
- compound: "N#Cc1ncc(N2C(=O)C3(CCC3)N(c3ccc(OC4CC5CCC(N5)C4F)cc3)C2=S)cc1C(F)(F)F (stereo not drawn)"
  unit.of.measurement: "%"
  Emax: 102
- compound: "N#Cc1ncc(N2C(=O)C3(CCC3)N(c3ccc(OC4CC5CC4CN5)cc3)C2=S)cc1C(F)(F)F (stereo not drawn)"
  unit.of.measurement: "%"
  Emax: 103
